Measured microsomal CLint of individual entries
ASSAY PROCEDURE: Metabolic stability in human liver microsomes assessed as intrinsic clearance preincubated for 5 mins followed by NADPH addition measured upto 60 mins by LC-MS/MS analysis
Assay type: ADME, Microsome
TEST SETTINGS: time < 65 min, read-out: CLH
ENDPOINT: microsomal CLint (µL/min/mg)

COc1cc(NC(C(=O)c2c[nH]c3ccccc23)c2ccc(F)cc2)cc(S(=O)(=O)CCCO)c1 (centres undefined)    35
COc1cc(NC(C(=O)c2c[nH]c3ccccc23)c2ccc(F)cc2)cc(S(C)(=O)=O)c1 (centres undefined)    12

----------
ASSAY PROCEDURE: Oral bioavailability in Sprague-Dawley rat at 10 mg/kg measured after 24 to 48 hrs by LC-MS/MS analysis
Assay type: ADME, organism-based
TEST SETTINGS: in vivo, time 24-48 hrs
ENDPOINT: bioavailability (%)

COc1cc(N[C@H](C(=O)c2c[nH]c3ccc(OC(F)(F)F)cc23)c2ccc(Cl)cc2OC)cc(S(C)(=O)=O)c1    58
COc1cc(NC(C(=O)c2c[nH]c3cc(F)ccc23)c2ccc(F)cc2OCCO)cc(S(C)(=O)=O)c1 (single isomer, unassigned; (+))    27
COc1cc(NC(C(=O)c2c[nH]c3cc(OC)c(C)cc23)c2ccc(Cl)cc2OC)cc(S(C)(=O)=O)c1 (configuration not stated)    74
COc1cc(NC(C(=O)c2c[nH]c3cc(OC)c(C)cc23)c2ccc(F)cc2OCCO)cc(S(C)(=O)=O)c1 (single isomer, unassigned; (+))    18
COc1cc(NC(C(=O)c2c[nH]c3cc(OC)c(C)cc23)c2ccc(Cl)cc2OCCO)cc(S(C)(=O)=O)c1 (single isomer, unassigned; (+))    16
COc1cc(NC(C(=O)c2c[nH]c3cc(F)ccc23)c2ccc(F)cc2OC)cc(S(C)(=O)=O)c1 (configuration not stated)    49
COc1cc(NC(C(=O)c2c[nH]c3cc(OC)c(C)cc23)c2ccc(F)cc2OC)cc(S(C)(=O)=O)c1 (single isomer, unassigned; (+))    31

----------
ASSAY PROCEDURE: AUC in CD-1 mouse at 10 mg/kg, po measured upto 24 hrs by LC-MS/MS analysis
Format: ADME, organism-based
TEST SETTINGS: in vivo
ENDPOINT: AUC at 24 h (ng·h/mL)

COc1cc(N[C@H](C(=O)c2c[nH]c3ccc(OC(F)(F)F)cc23)c2ccc(Cl)cc2OC)cc(S(C)(=O)=O)c1 [MOSNODENVIR]    35600

----------
ASSAY PROCEDURE: Distribution coefficient between 1-Octanol and aqueous phosphate buffer, logD of the compound at pH 7.4 by shake flask method
Assay type: physicochemical
TEST SETTINGS: 1-octanol/aqueous phosphate buffer
ENDPOINT: logD

COc1cc(N[C@H](C(=O)c2c[nH]c3ccc(OC(F)(F)F)cc23)c2ccc(Cl)cc2OC)cc(S(C)(=O)=O)c1    > 4.1

----------
ASSAY PROCEDURE: Clearance in overnight fasted Beagle dog at 0.51 mg/kg, iv measured upto 24 hrs by LC-MS/MS analysis
Type: ADME, organism-based, Canis lupus familiaris
TEST SETTINGS: in vivo
ENDPOINT: clearance

COc1cc(N[C@H](C(=O)c2c[nH]c3ccc(OC(F)(F)F)cc23)c2ccc(Cl)cc2OC)cc(S(C)(=O)=O)c1    6.4 mL/min/kg

----------
ASSAY PROCEDURE: Metabolic stability in human hepatocytes assessed as intrinsic clearance measured per million cells incubated upto 120 mins by LC-MS/MS analysis
Format: ADME, cell-based, Hepatocyte
TEST SETTINGS: read-out: CLH
ENDPOINT: hepatocyte CLint (µL/min/1e6 cells)

COc1cc(NC(C(=O)c2c[nH]c3cc(F)ccc23)c2ccc(F)cc2OCCO)cc(S(C)(=O)=O)c1 (single isomer, unassigned; (+))    27
COc1cc(NC(C(=O)c2c[nH]c3cc(F)c(C)cc23)c2ccc(Cl)cc2OC)cc(S(C)(=O)=O)c1 (single isomer, unassigned; (+))    2.4

----------
ASSAY PROCEDURE: Thermodynamic solubility of the compound in aqueous buffer at pH 7.4 measured after 24 hrs by UPLC analysis
Format: physicochemical
TEST SETTINGS: read-out: Therm_solubility
ENDPOINT: solubility thermodynamic at 24 h

COc1cc(N[C@H](C(=O)c2c[nH]c3ccc(OC(F)(F)F)cc23)c2ccc(Cl)cc2OC)cc(S(C)(=O)=O)c1 [MOSNODENVIR]    < 1 µg/mL
COc1cc(NC(C(=O)c2c[nH]c3cc(OC)c(C)cc23)c2ccc(Cl)cc2OCCO)cc(S(C)(=O)=O)c1 (single isomer, unassigned; (+))    < 1 µg/mL
COc1cc(NC(C(=O)c2c[nH]c3cc(OC)c(C)cc23)c2ccc(F)cc2OCCO)cc(S(C)(=O)=O)c1 (single isomer, unassigned; (+))    < 1 µg/mL
